Biological target: human IL-21R expressed on cells (human, UniProt Q9HBE5 20-538)
Sequence (Q9HBE5 20-538 limits assumed): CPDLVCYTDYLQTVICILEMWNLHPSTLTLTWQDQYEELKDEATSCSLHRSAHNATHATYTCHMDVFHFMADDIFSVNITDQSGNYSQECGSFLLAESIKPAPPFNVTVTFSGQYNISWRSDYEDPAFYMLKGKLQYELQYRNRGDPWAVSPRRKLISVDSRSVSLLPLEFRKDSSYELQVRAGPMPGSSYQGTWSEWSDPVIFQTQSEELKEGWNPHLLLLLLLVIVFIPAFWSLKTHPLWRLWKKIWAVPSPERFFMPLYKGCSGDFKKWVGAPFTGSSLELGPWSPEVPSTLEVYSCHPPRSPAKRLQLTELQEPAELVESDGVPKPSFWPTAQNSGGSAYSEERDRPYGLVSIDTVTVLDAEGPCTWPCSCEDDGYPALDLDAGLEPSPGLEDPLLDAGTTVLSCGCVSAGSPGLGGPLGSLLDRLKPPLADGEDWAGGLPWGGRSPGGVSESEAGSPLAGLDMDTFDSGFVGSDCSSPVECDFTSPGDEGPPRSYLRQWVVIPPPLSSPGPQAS
Assay: cell-based or functional assay
Sorting guide: entries reporting IC50 (nM) in Human IL-21R-BaF3 Neutralization Assay beneath 6 nM go in the met pile, the rest go in the not met pile.

scFv L9 (scFv) scFv: QVQLQESGPGLVKTSETLSLTCAVSGYSISSGYYWGWIRQPPGKGLEWIGSISHTGNTYYNPPLKSRVTISVDTSKNQFSLKLSSVTAADTAVYYCARGGGISRPEYWGKGTLVTVSSGGGGSGGGGSGGGGSALSSELTQDPPVSVALGQTVTLTCQGDSLRTYYASWYQQKSGQAPILLLYGKHKRPSGIPDRFSGSTSGDTASLTITGAQAEDEADYYCVARSNKGNPHVLFGGGTQLTVL: met
scFv L5 (scFv) scFv: QVQLQESGPGLVKTSETLSLTCAVSGYSISSGYYWGWIRQPPGKGLEWIGSISHTGNTYYNPPLKSRVTISVDTSKNQFSLKLSSVTAADTAVYYCARGGGISRPEYWGKGTLVTVSSGGGGSGGGGSGGGGSALSSELTQDPPVSVALGQTVTLTCQGDSLRTYYASWYQQKSGQAPILLLYGKHKRPSGIPDRFSGSTSGDTASLTITGAQAEDEADYYCASRSSKGNPHVLFGGGTQLTVL: met
scFv H3 (scFv) scFv: QVQLQESGPGLVKTSETLSLTCAVSGYSISSGYYWGWIRQPPGKGLEWIGSISHTGNTYYNPPLKSRVTISVDTSKNQFSLKLSSVTAADTAVYYCARFMGFGRPEYWGKGTLVTVSSGGGGSGGGGSGGGGSALSSELTQDPPVSVALGQTVTLTCQGDSLRTYYASWYQQKSGQAPILLLYGKHKRPSGIPDRFSGSTSGDTASLTITGAQAEDEADYYCNSRDSSGNPHVLFGGGTQLTVL: not met

-- ask Does scFv L23 (scFv) scFv: QVQLQESGPGLVKTSETLSLTCAVSGYSISSGYYWGWIRQPPGKGLEWIGSISHTGNTYYNPPLKSRVTISVDTSKNQFSLKLSSVTAADTAVYYCARGGGISRPEYWGKGTLVTVSSGGGGSGGGGSGGGGSALSSELTQDPPVSVALGQTVTLTCQGDSLRTYYASWYQQKSGQAPILLLYGKHKRPSGIPDRFSGSTSGDTASLTITGAQAEDEADYYCSARSVRGNPHVLFGGGTQLTVL have IC50 (nM) in Human IL-21R-BaF3 Neutralization Assay strictly under 6 nM?
-- reply met
